Quick list: DC50 per entry.
biological target: SMARCA2 (Homo sapiens); construct: endogenous in cells; host or cells: A375; assay: SMARCA2 degradation, MSD assay, dose response; format: cell-based; details: SMARCA2 degradation, MSD assay, A375 cells, 2 h timepoint
Sequence (P51531 whole entry): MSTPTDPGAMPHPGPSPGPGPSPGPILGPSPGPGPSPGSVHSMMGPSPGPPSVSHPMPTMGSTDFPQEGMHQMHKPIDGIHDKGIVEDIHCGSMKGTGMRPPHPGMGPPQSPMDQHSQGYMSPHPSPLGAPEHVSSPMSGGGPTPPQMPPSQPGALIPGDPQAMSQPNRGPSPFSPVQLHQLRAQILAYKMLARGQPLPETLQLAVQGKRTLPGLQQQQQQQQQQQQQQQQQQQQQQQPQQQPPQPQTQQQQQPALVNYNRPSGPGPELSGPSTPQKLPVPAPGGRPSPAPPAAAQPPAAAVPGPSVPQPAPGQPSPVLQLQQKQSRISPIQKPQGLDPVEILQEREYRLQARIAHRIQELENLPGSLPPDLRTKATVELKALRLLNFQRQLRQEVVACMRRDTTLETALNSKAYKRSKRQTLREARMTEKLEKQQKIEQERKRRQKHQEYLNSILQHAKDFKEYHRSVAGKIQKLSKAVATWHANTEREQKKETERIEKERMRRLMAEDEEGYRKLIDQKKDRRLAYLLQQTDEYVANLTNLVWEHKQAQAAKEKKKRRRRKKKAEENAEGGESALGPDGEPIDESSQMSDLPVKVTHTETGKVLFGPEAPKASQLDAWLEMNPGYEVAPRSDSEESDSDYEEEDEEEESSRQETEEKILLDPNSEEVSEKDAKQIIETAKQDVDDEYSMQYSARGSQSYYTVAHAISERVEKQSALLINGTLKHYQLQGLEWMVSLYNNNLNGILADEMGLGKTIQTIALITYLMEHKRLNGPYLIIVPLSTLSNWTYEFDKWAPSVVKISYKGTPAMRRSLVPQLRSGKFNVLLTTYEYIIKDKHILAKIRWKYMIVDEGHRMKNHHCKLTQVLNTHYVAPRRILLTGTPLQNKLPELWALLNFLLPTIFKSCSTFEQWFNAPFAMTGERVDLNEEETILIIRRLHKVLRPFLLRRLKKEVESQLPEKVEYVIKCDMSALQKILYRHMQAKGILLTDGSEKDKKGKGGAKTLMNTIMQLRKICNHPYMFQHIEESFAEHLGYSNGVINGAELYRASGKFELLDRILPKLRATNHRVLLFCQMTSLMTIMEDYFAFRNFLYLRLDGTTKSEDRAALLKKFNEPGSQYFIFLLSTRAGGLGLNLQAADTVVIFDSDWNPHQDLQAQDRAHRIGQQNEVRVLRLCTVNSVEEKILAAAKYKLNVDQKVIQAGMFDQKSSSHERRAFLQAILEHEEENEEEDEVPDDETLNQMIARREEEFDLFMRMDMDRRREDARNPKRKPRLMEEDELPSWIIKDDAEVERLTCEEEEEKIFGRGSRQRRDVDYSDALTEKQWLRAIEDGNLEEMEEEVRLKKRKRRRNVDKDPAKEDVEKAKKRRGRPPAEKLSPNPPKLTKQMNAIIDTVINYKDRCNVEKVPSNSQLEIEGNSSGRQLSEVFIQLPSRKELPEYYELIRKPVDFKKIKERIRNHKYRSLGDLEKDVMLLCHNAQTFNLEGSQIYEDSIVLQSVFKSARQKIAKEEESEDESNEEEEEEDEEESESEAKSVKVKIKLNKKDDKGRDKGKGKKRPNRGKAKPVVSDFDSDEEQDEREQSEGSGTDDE

[
  {
    "compound": "Cc1ncsc1-c1ccc([C@H](C)NC(=O)[C@@H]2C[C@@H](O)CN2C(=O)[C@@H](NC(=O)Cc2ccnc(N3CCN(c4cc(-c5ccccc5O)nnc4N)CC3)c2)C(C)(C)C)cc1",
    "DC50, nM": 850
  },
  {
    "compound": "Cc1ncsc1-c1ccc([C@H](C)NC(=O)[C@@H]2C[C@@H](O)CN2C(=O)[C@@H](NC(=O)c2cccc(N3CCN(c4cc(-c5ccccc5O)nnc4N)CC3)n2)C(C)(C)C)cc1",
    "DC50, nM": 95
  },
  {
    "compound": "Cc1ncsc1-c1ccc([C@H](C)NC(=O)[C@@H]2C[C@@H](O)CN2C(=O)[C@@H](NC(=O)CN2CCN(c3cc(-c4ccccc4O)nnc3N)CC2)C(C)(C)C)cc1 [Compound 6, reference compound]",
    "DC50, nM": 85
  },
  {
    "compound": "Cc1ncsc1-c1ccc(CNC(=O)C2C[C@@H](O)CN2C(=O)C(NC(=O)C2(F)CC2)C(C)(C)C)c(OCCc2ccc(CN3CCN(c4cc(-c5ccccc5O)nnc4N)CC3)cc2)c1 (stereo in doubt) [Compound 11, reference compound]",
    "DC50, nM": 221
  },
  {
    "compound": "Cc1ncsc1-c1ccc([C@H](C)NC(=O)[C@@H]2C[C@@H](O)CN2C(=O)[C@@H](NC(=O)c2ccnc(N3CCN(c4cc(-c5ccccc5O)nnc4N)CC3)c2)C(C)(C)C)cc1",
    "DC50, nM": 28
  },
  {
    "compound": "Cc1ncsc1-c1ccc([C@H](C)NC(=O)[C@@H]2C[C@@H](O)CN2C(=O)[C@@H](NC(=O)c2cccc(N3CCN(c4nc(-c5ccccc5O)nnc4N)CC3)n2)C(C)(C)C)cc1",
    "DC50, nM": 372
  },
  {
    "compound": "Cc1ncsc1-c1ccc([C@H](C)NC(=O)[C@@H]2C[C@@H](O)CN2C(=O)[C@@H](NC(=O)CCc2ccnc(N3CCN(c4cc(-c5ccccc5O)nnc4N)CC3)c2)C(C)(C)C)cc1",
    "DC50, nM": 379
  }
]

---

Quick list: pKd per entry.
molecular target: VBC / SMARCA2^BD ternary complex (Homo sapiens, UniProt P40337+P51531); construct: VHL (54-213), ElonginB (17-112) ElonginC (1-104); SMARCA2^BD 1373–1511 ∆1400–1417; His6 (N, cleaved yes); assay: SPR ternary complex binding, VBC surface with preformed PROTAC/SMARCA2 bromodomain complex; settings: SPR, VHL, PROTAC, error SEM, N = 3, read-out: KLPT (ternary complex binding affinity)
Sequence (P40337 54-213): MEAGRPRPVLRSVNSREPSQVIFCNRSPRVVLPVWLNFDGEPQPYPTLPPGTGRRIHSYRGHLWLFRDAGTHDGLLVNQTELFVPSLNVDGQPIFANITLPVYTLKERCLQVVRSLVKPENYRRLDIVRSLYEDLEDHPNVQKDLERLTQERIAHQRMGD
Sequence (P51531 other isoform, or with tags, fused parts or gaps): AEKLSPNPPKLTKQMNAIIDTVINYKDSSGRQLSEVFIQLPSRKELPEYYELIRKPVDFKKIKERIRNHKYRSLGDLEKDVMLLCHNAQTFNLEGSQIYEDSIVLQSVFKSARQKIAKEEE
Sequence (Q15370 1-104, further chain): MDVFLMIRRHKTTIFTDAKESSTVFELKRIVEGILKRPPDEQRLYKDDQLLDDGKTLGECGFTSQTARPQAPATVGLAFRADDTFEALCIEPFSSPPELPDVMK
Sequence (Q15369 17-112, further chain): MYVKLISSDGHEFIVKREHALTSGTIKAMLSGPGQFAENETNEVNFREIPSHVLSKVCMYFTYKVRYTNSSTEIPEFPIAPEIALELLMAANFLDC
pKd: −log10 of the molar value.

[
  {
    "compound": "Cc1ncsc1-c1ccc([C@H](C)NC(=O)[C@@H]2C[C@@H](O)CN2C(=O)[C@@H](NC(=O)CN2CCN(c3cc(-c4ccccc4O)nnc3N)CC2)C(C)(C)C)cc1 [Compound 6, reference compound]",
    "tgt": "VBC / SMARCA2^BD ternary complex (Homo sapiens, UniProt P40337+P51531)",
    "pKd": 8.25
  },
  {
    "compound": "Cc1ncsc1-c1ccc([C@H](C)NC(=O)[C@@H]2C[C@@H](O)CN2C(=O)[C@@H](NC(=O)CCc2ccnc(N3CCN(c4cc(-c5ccccc5O)nnc4N)CC3)c2)C(C)(C)C)cc1 [Compound 8]",
    "tgt": "VBC / SMARCA2^BD ternary complex (Homo sapiens, UniProt P40337+P51531)",
    "pKd": 7.57
  },
  {
    "compound": "Cc1ncsc1-c1ccc(CNC(=O)C2C[C@@H](O)CN2C(=O)C(NC(=O)C2(F)CC2)C(C)(C)C)c(OCCc2ccc(CN3CCN(c4cc(-c5ccccc5O)nnc4N)CC3)cc2)c1 (stereo in doubt) [Compound 11, reference compound]",
    "tgt": "VBC / SMARCA2^BD ternary complex (Homo sapiens, UniProt P40337+P51531)",
    "pKd": 6.97
  },
  {
    "compound": "Cc1ncsc1-c1ccc([C@H](C)NC(=O)[C@@H]2C[C@@H](O)CN2C(=O)[C@@H](NC(=O)c2cccc(N3CCN(c4nc(-c5ccccc5O)nnc4N)CC3)n2)C(C)(C)C)cc1 [Compound 9]",
    "tgt": "VBC / SMARCA2^BD ternary complex (Homo sapiens, UniProt P40337+P51531)",
    "pKd": 7.11
  },
  {
    "compound": "Cc1ncsc1-c1ccc([C@H](C)NC(=O)[C@@H]2C[C@@H](O)CN2C(=O)[C@@H](NC(=O)c2csc(N3CCN(c4cc(-c5ccccc5O)nnc4N)CC3)n2)C(C)(C)C)cc1 [Compound 5]",
    "tgt": "VBC / SMARCA2^BD ternary complex (Homo sapiens, UniProt P40337+P51531)",
    "pKd": 7.33
  },
  {
    "compound": "Cc1ncsc1-c1ccc([C@H](C)NC(=O)[C@@H]2C[C@@H](O)CN2C(=O)[C@@H](NC(=O)Cc2ccnc(N3CCN(c4cc(-c5ccccc5O)nnc4N)CC3)c2)C(C)(C)C)cc1 [Compound 7]",
    "tgt": "VBC / SMARCA2^BD ternary complex (Homo sapiens, UniProt P40337+P51531)",
    "pKd": 7.10
  },
  {
    "compound": "Cc1ncsc1-c1ccc([C@H](C)NC(=O)[C@@H]2C[C@@H](O)CN2C(=O)[C@@H](NC(=O)c2cccc(N3CCN(c4cc(-c5ccccc5O)nnc4N)CC3)n2)C(C)(C)C)cc1 [Compound 2]",
    "tgt": "VBC / SMARCA2^BD ternary complex (Homo sapiens, UniProt P40337+P51531)",
    "pKd": 7.48
  },
  {
    "compound": "Cc1ncsc1-c1ccc([C@H](C)NC(=O)[C@@H]2C[C@@H](O)CN2C(=O)[C@@H](NC(=O)c2ccnc(N3CCN(c4cc(-c5ccccc5O)nnc4N)CC3)c2)C(C)(C)C)cc1 [Compound 1]",
    "tgt": "VBC / SMARCA2^BD ternary complex (Homo sapiens, UniProt P40337+P51531)",
    "pKd": 8.33
  },
  {
    "compound": "Cc1ncsc1-c1ccc([C@H](C)NC(=O)[C@@H]2C[C@@H](O)CN2C(=O)[C@@H](NC(=O)c2ccnc(N3CCN(c4cnnc(-c5ccccc5O)c4)CC3)c2)C(C)(C)C)cc1 [Compound 10]",
    "tgt": "VBC / SMARCA2^BD ternary complex (Homo sapiens, UniProt P40337+P51531)",
    "pKd": 6.60
  },
  {
    "compound": "Cc1ncsc1-c1ccc([C@H](C)NC(=O)[C@@H]2C[C@@H](O)CN2C(=O)[C@@H](NC(=O)c2cccc(N3CCN(c4cc(-c5ccccc5O)nnc4N)CC3)c2)C(C)(C)C)cc1 [Compound 4]",
    "tgt": "VBC / SMARCA2^BD ternary complex (Homo sapiens, UniProt P40337+P51531)",
    "pKd": 7.19
  }
]
